Assay Details: Antioxidant activity assessed as trolox equivalent of ORAC radical scavenging activity by ORAC-FL assay
Format: functional
Result Type: Activity

CCCCC1OC(=O)c2cc(OCc3ccc(CN4CCN(CC)CC4)c(O)c3)ccc21 (stereo not drawn) : 0.77
CCCCC1OC(=O)c2cc(OCc3cccc(CN4CCOCC4)c3O)ccc21 (stereo not drawn) : 2.14
CCCCC1OC(=O)c2cc(OCc3cccc(CN(CC)Cc4ccccc4)c3O)ccc21 (stereo not drawn) : 1.86
CCCCC1OC(=O)c2cc(OCc3cccc(CN4CCN(C)CC4)c3O)ccc21 (stereo not drawn) : 2.33
CCCCC1OC(=O)c2cc(OCc3cccc(CN4CCN(CC)CC4)c3O)ccc21 (stereo not drawn) : 1.67

## Task Which Activity is listed for CCCCC1OC(=O)c2cc(OCc3cccc(CN4CCCCC4)c3O)ccc21 (stereo not drawn) ?
## Result 1.84

###

Quick record: pIC50, UniProt:O42275.
Sequence (O42275 whole entry): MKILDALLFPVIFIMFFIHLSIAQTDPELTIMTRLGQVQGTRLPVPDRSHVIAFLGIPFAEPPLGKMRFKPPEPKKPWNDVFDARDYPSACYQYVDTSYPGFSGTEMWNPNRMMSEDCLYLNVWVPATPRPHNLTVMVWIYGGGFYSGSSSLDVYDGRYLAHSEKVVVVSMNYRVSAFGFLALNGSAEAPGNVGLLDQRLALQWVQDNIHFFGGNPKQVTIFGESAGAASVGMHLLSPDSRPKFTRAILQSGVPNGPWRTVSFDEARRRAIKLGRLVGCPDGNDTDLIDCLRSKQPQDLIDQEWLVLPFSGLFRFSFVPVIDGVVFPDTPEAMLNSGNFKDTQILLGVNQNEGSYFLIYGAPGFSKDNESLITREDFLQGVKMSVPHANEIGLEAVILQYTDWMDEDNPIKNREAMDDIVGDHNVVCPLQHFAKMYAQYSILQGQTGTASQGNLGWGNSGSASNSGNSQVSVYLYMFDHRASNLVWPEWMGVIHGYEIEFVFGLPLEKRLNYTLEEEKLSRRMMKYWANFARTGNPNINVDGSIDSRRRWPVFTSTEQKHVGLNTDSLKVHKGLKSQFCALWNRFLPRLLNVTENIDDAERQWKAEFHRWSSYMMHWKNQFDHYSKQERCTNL
Conceptually, pIC50 converts a concentration in mol/L into minus its log10.

Previously resolved entries follow.
CCCCC1OC(=O)c2cc(OCc3ccc(CN4CCN(CC)CC4)c(O)c3)ccc21 (configuration not stated) : 4.83
CCCCC1OC(=O)c2cc(OCc3cccc(CN4CCOCC4)c3O)ccc21 (configuration not stated) : 4.65
CCCCC1OC(=O)c2cc(OCc3ccc(CN(CC)CC)c(O)c3)ccc21 (configuration not stated) : 6.19
CCCCC1OC(=O)c2cc(OCc3cccc(CN4CCCC4)c3O)ccc21 (configuration not stated) : 4.57
CCCCC1OC(=O)c2cc(OCc3ccc(CN4CCN(C)CC4)c(O)c3)ccc21 (configuration not stated) : 4.87

## Task API: value(readout=pIC50, system=UniProt:O42275) for record CCCCC1OC(=O)c2cc(OCc3ccc(CN(CC)Cc4ccccc4)c(O)c3)ccc21 (configuration not stated)
## Result 4.69

## Task API: value(readout=pIC50, system=UniProt:O42275) for record CCCCC1OC(=O)c2cc(OCc3cccc(CN(CC)CC)c3O)ccc21 (configuration not stated)
## Result 4.68

## Task API: value(readout=pIC50, system=UniProt:O42275) for record CCCCC1OC(=O)c2cc(OCc3ccc(CN4CCOCC4)c(O)c3)ccc21 (configuration not stated)
## Result 5.08

## Task API: value(readout=pIC50, system=UniProt:O42275) for record CCCCC1OC(=O)c2cc(OCc3ccc(CN(C)C)c(O)c3)ccc21 (configuration not stated)
## Result 5.27

## Task API: value(readout=pIC50, system=UniProt:O42275) for record CCCCC1OC(=O)c2cc(OCc3cccc(CN4CCCCC4)c3O)ccc21 (configuration not stated)
## Result 4.84

## Task API: value(readout=pIC50, system=UniProt:O42275) for record CCCCC1OC(=O)c2cc(OCc3ccc(CN4CCCC4)c(O)c3)ccc21 (configuration not stated)
## Result 6.05

## Task API: value(readout=pIC50, system=UniProt:O42275) for record CCCCC1OC(=O)c2cc(OCc3ccc(CN4CCCCC4)c(O)c3)ccc21 (configuration not stated)
## Result 7.06

###

Study System: Acetylcholinesterase (Homo sapiens, UniProt P22303)
Sequence (P22303 whole entry): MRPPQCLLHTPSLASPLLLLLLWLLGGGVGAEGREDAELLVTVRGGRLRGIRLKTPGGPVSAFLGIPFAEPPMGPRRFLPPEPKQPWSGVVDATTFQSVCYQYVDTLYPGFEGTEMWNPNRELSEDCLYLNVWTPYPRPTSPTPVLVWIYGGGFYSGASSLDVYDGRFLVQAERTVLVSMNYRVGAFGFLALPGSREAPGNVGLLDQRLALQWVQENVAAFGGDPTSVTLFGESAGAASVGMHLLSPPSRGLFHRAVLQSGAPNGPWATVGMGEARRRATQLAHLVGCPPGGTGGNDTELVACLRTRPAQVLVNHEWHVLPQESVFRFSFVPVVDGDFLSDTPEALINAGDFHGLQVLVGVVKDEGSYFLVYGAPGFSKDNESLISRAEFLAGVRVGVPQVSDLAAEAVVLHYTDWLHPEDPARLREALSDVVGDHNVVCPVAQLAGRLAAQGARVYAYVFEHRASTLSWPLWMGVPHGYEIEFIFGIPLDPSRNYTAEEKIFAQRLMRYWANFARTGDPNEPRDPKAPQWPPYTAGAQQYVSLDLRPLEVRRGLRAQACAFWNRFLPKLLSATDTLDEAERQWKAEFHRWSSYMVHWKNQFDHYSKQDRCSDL
# IC50 per record follows
Reply with just the number (in µM).

Previously resolved entries follow.
CCCCC1OC(=O)c2cc(OCc3ccc(CN(C)C)c(O)c3)ccc21 (stereo unspecified) : 8.78
CCCCC1OC(=O)c2cc(OCc3ccc(CN4CCOCC4)c(O)c3)ccc21 (stereo unspecified) : 3.32

## Task API: value(readout=IC50, system=Acetylcholinesterase (Homo sapiens, UniProt P22303)) for record CCCCC1OC(=O)c2cc(OCc3ccc(CN4CCCCC4)c(O)c3)ccc21 (stereo unspecified)
## Result 0.041

## Task API: value(readout=IC50, system=Acetylcholinesterase (Homo sapiens, UniProt P22303)) for record CCCCC1OC(=O)c2cc(OCc3ccc(CN(CC)CC)c(O)c3)ccc21 (stereo unspecified)
## Result 0.35

## Task API: value(readout=IC50, system=Acetylcholinesterase (Homo sapiens, UniProt P22303)) for record CCCCC1OC(=O)c2cc(OCc3ccc(CN4CCN(C)CC4)c(O)c3)ccc21 (stereo unspecified)
## Result 23.8

## Task API: value(readout=IC50, system=Acetylcholinesterase (Homo sapiens, UniProt P22303)) for record CCCCC1OC(=O)c2cc(OCc3ccc(CN4CCCC4)c(O)c3)ccc21 (stereo unspecified)
## Result 3.92
